Would you mind telling me the reported phenotypically active of each entry?
Test system: A549-TUBA1B-RELA
assay-text: phenotypically active (imaging signature differs from DMSO and reproducible) at any of 0.3-9 uM (binary (1 = active, 0 = inactive)); higher = active
experimental-parameters: treatment time: 24 h
Structures can show the parent of a compound that is named as a salt.

# count of solved cases: 8
C[C@H]1C[C@@H]2[C@H]([C@@H](O)C[C@@]3(C)[C@H]2CC[C@]3(O)C(=O)CO)[C@@]2(C)C=CC(=O)C=C12    1 (active)
COC(=O)C(Cc1ccc(OCCn2c(=O)sc3cc(C(=O)c4ccccc4)ccc32)cc1)C(=O)OC    0 (inactive)
CC(C)n1nc(-c2cc3cc(O)ccc3[nH]2)c2c(N)ncnc21    1 (active)
CN(C)CCCSc1ccccc1NC(=O)/C=C/c1ccccc1 [Cinanserin hydrochloride]    0 (inactive)
CCCOc1ccc(CCc2nc3cc(-c4c(C)noc4C)ccc3n2CCN2CCOCC2)cc1    0 (inactive)
CCOc1ccc2nc(S(N)(=O)=O)sc2c1 [ethoxzolamide]    0 (inactive)
Cn1cnc2c(F)c(Nc3ccc(Br)cc3Cl)c(C(=O)NOCCO)cc21    1 (active)
CC(C)(C)c1nc(-c2cccc(NS(=O)(=O)c3c(F)cccc3F)c2F)c(-c2ccnc(N)n2)s1    1 (active)

# context switch: different molecule, same phenotypically active
// query # lookup: phenotypically active of CC(Oc1ccc(O)cc1)(P(=O)(O)O)P(=O)(O)O
// result 0 (inactive)
